Test: in vitro
Details: Dunkin Hartley, guinea pig, plasma
experimental-readout: fraction unbound at 5 h
Reply with just the number.

QUERY: Which fraction unbound at 5 h is listed for CC(C)N(CCNCCc1ccc(O)c2[nH]c(=O)sc12)C(=O)CCOCCc1ccccc1 ?
RESULT: 0.0752

QUERY: Which fraction unbound at 5 h is listed for N=C(NCCCCc1ccc(OCC(O)CO)cc1)NC(=O)c1nc(Cl)c(N)nc1N (centres undefined) [552-02 FREE BASE] ?
RESULT: 0.299

QUERY: Which fraction unbound at 5 h is listed for O=c1[nH]c2c(O)ccc(CCNCCS(=O)(=O)CCCOCCc3ccccc3)c2s1 ?
RESULT: 0.101

QUERY: Which fraction unbound at 5 h is listed for O=C(c1c[nH]c(=O)c2ccccc12)N1CCC(N2CCC(Oc3ccc(Cl)c(Cl)c3)CC2)CC1 ?
RESULT: 0.17

QUERY: Which fraction unbound at 5 h is listed for CNC(=O)CCCN(C)C(=O)c1ccc2c(c1)c1c(n2C)CC[C@@H](C2CCOCC2)C1 ?
RESULT: 0.329

QUERY: Which fraction unbound at 5 h is listed for CCCNC(c1cccnc1)P(=O)(c1ccccc1)c1ccccc1 (centres undefined) ?
RESULT: 0.19

QUERY: Which fraction unbound at 5 h is listed for Cc1ccc2c(OCCN3CCC(Cc4cccc(NS(C)(=O)=O)c4)CC3)cccc2n1 ?
RESULT: 0.0437

QUERY: Which fraction unbound at 5 h is listed for O=c1[nH]c2c(O)ccc([C@@H](O)CNCCc3cccc(CNCCc4ccccc4F)c3)c2s1 ?
RESULT: 0.107

QUERY: Which fraction unbound at 5 h is listed for O=C(NCC1CCCCN1)c1cc(OCC(F)(F)F)ccc1OCC(F)(F)F (centres undefined) [FLECAINIDE] ?
RESULT: 0.574

QUERY: Which fraction unbound at 5 h is listed for O=P(c1ccccc1)(c1ccccc1)N(Cc1ccccn1)Cc1ccccn1 ?
RESULT: 0.569

QUERY: Which fraction unbound at 5 h is listed for CC#Cc1cncc(-c2ccc3c(c2)C2(N=C(C)C(N)=N2)[C@]2(CC[C@H](OC)CC2)C3)c1 (some centres undefined) ?
RESULT: 0.072

QUERY: Which fraction unbound at 5 h is listed for COc1cnc(-c2ccccc2C(F)(F)CNC(=O)c2ccc(COCC(F)(F)F)nc2)cn1 ?
RESULT: 0.0544

QUERY: Which fraction unbound at 5 h is listed for O=c1[nH]c2c(O)ccc([C@@H](O)CNCCCOCCNCCc3cccc(Cl)c3)c2s1 ?
RESULT: 0.186

QUERY: Which fraction unbound at 5 h is listed for Cc1nn(-c2ccc(F)cc2)c(NS(=O)(=O)c2ccc(C(F)(F)F)cc2)c1C(=O)N[C@@H](C)C(C)(C)C ?
RESULT: 0.0736

QUERY: Which fraction unbound at 5 h is listed for CN(C)N(C)C(=O)[C@@]1(Cc2ccccc2)CCCN(C(=O)[C@@H](Cc2c[nH]c3ccccc23)NC(=O)C(C)(C)N)C1 ?
RESULT: 0.22

QUERY: Which fraction unbound at 5 h is listed for CN1CCN(C2=Nc3cc(Cl)ccc3Nc3ccccc32)CC1 ?
RESULT: 0.0872

QUERY: Which fraction unbound at 5 h is listed for CCCN(c1cncnc1)P(=O)(c1ccccc1)c1ccccc1 ?
RESULT: 0.529

QUERY: Which fraction unbound at 5 h is listed for c1ccc([C@H]([C@@H](c2ccccc2)N2CCCC2)N2CCCC2)cc1 ?
RESULT: 0.489

QUERY: Which fraction unbound at 5 h is listed for O=P(c1ccccc1)(c1ccccc1)N(Cc1ccccn1)c1cccnc1 ?
RESULT: 0.299

* * *

Provide the reported hepatocyte CLint of each item.
Assay: in vitro
Settings: human, hepatocytes
Answer format: numeric, µL/min/1e6 cells implied, no suffix.

QUERY: Which hepatocyte CLint is listed for CCN(CC)CCN1C(=O)[C@@](O)(c2ccccc2Cl)c2c1cc(C(N)=O)cc2C(F)(F)F ?
RESULT: 11.5

QUERY: Which hepatocyte CLint is listed for C[C@H](Oc1ccc(Cl)cc1CN1CCN(C(=O)Cc2ccc(Cl)cc2)[C@@H](C)C1)C(=O)O ?
RESULT: 4.7

QUERY: Which hepatocyte CLint is listed for Cc1ccc(-c2cc(C(F)(F)F)nn2-c2ccc(S(N)(=O)=O)cc2)cc1 ?
RESULT: 25.7

QUERY: Which hepatocyte CLint is listed for CCc1cccc2cc(C(O)CNC(C)(C)C)oc12 (centres undefined) ?
RESULT: 8.71

QUERY: Which hepatocyte CLint is listed for C[C@H](CO)Nc1[nH]c(SCc2ccccc2F)nc2nc(=O)sc1-2 ?
RESULT: 30.1

QUERY: Which hepatocyte CLint is listed for N=C(N)N1CCc2ccccc2C1 ?
RESULT: 3.98

* * *

Provide the reported logD of each item.
Assay: physchem
Settings: octan-1-ol/water, pH 7.4, LogD7.4

QUERY: Which logD is listed for O=C(COCc1ccncc1)N1CCC(c2ccc(F)cc2Cl)CC1 ?
RESULT: 2.7

QUERY: Which logD is listed for Cc1nocc1C(=O)Nc1ccc(-c2ccccc2OC(F)(F)F)c(N)n1 ?
RESULT: 3.7

QUERY: Which logD is listed for O=S(=O)(Cc1ccccc1)NCC(c1ccccc1)N1CCCCCC1 (stereo not given) ?
RESULT: 2.83

QUERY: Which logD is listed for Cc1ccc(S(=O)(=O)NC(=O)N2CCC(N3CCC(Oc4ccc(Cl)cc4)CC3)CC2)cc1 ?
RESULT: 1.6

QUERY: Which logD is listed for CCCSc1nc(N2CCC[C@H](CC(=O)O)C2)ccc1C(=O)NC1CCCCC1 ?
RESULT: 2.18

* * *

Provide the reported logD of each item.
Test: physchem
Details: octan-1-ol/water, pH 7.4, LogD7.4
Reply with just the number.

QUERY: Which logD is listed for COCCN(c1ccnc(Nc2cc(N3CCOCC3)cc(N3CCOCC3)c2)n1)c1cc(CO)ccc1C ?
RESULT: 2.8

QUERY: Which logD is listed for COc1ccc(OC(F)(F)F)cc1CN[C@H]1CCCN[C@H]1c1ccccc1 ?
RESULT: 2.9

QUERY: Which logD is listed for Cc1cc(C)c(C(=O)N[C@@H](Cc2ccc(OCCCNc3ccccn3)cc2)C(=O)O)c(C)c1 ?
RESULT: 0.49

QUERY: Which logD is listed for CCCN[C@H]1CCc2nc(N)sc2C1 [PRAMIPEXOLE] ?
RESULT: 3.15

QUERY: Which logD is listed for COCC1=C(C(=O)OC(C)OC(=O)OC(C)C)N2C(=O)[C@@H](NC(=O)/C(=N\OC)c3csc(N)n3)[C@H]2SC1 (some centres undefined) [CEFPODOXIME PROXETIL] ?
RESULT: 1.7

QUERY: Which logD is listed for CS(=O)(=O)NC(=O)CCCc1c(-c2ccc(F)cc2)[nH]c2ccc(C#N)cc12 ?
RESULT: 1.5

QUERY: Which logD is listed for COc1cc2c(Nc3ccc(F)cc3F)c(C(N)=O)cnc2cc1NCCN(C)C ?
RESULT: 1.71

QUERY: Which logD is listed for O=C(Nc1cccc(CCO)c1)c1cc2cc(Cl)ccc2[nH]1 ?
RESULT: 3.83

QUERY: Which logD is listed for Cc1ccc2c(c1)c(Sc1ccc(S(C)(=O)=O)cc1)c(C)n2CC(=O)O ?
RESULT: -0.08

* * *

Provide the reported fraction unbound at 5 h of each item.
Test: in vitro
Settings: human, plasma, PPB

QUERY: Which fraction unbound at 5 h is listed for O=C(O)[C@@H](c1ccc(OCc2ccc3ccccc3n2)cc1)C1CCCC1 ?
RESULT: 0.0015

QUERY: Which fraction unbound at 5 h is listed for CC(C)(C)S(=O)(=O)N[C@H]1CC[C@H](C(=O)Nc2ccc(C(F)(F)F)cn2)CC1 ?
RESULT: 0.0409

QUERY: Which fraction unbound at 5 h is listed for C[C@@H]1C[C@H]2[C@@H]3CCC4=CC(=O)C=C[C@]4(C)[C@@]3(F)[C@@H](O)C[C@]2(C)[C@@]1(O)C(=O)CO ?
RESULT: 0.285

QUERY: Which fraction unbound at 5 h is listed for C[C@@H](NC(=O)C1CCNCC1)c1ccc(Nc2ncc3cc(-c4ccncc4)ccc3n2)cc1 ?
RESULT: 0.0477

QUERY: Which fraction unbound at 5 h is listed for COc1cc(Nc2nc(N[C@@H](C)c3ncc(F)cn3)ncc2Cl)n[nH]1 ?
RESULT: 0.121

* * *

Provide the reported microsomal CLint of each item.
Experiment: in vitro
Settings: human, liver microsomes
Answer format: numeric, µL/min/mg implied, no suffix.

QUERY: Which microsomal CLint is listed for c1ccc([C@H]([C@@H](c2ccccc2)N2CCCCC2)N2CCCCC2)cc1 ?
RESULT: 13.8

QUERY: Which microsomal CLint is listed for CCOc1nc2ccc(OCCC3CCN(c4ccc(C)nn4)CC3)cc2o1 ?
RESULT: 6

QUERY: Which microsomal CLint is listed for Cc1cccc(NC(=O)Nc2cccc3ccccc23)c1 ?
RESULT: 70.8

QUERY: Which microsomal CLint is listed for CC(=O)Nc1ccc(CNc2[nH]nc3ccnc(Oc4ccccc4)c23)cc1 ?
RESULT: 12

QUERY: Which microsomal CLint is listed for CN[C@@H](C)C(=O)N[C@H](C(=O)N1CC[C@H]2CC[C@H](NC(=O)c3cccc4ccccc34)[C@H]21)C(C)(C)C ?
RESULT: 85.1

QUERY: Which microsomal CLint is listed for C[C@H](NC(=O)c1cccc2c1N(Cc1ccc(Cl)cc1)CC2)c1ccc(C(=O)O)cc1 ?
RESULT: 15.8

QUERY: Which microsomal CLint is listed for CC(C)S(=O)(=O)c1ccc(-c2cnc(N)c(C(=O)Nc3ccccc3)n2)cc1 ?
RESULT: 10

QUERY: Which microsomal CLint is listed for CCCN(CCC)CCc1ccc(O)c(NC(C)=O)c1 ?
RESULT: 36

QUERY: Which microsomal CLint is listed for O=C(O)CSCC(=O)Nc1nc(-c2ccccc2)cs1 ?
RESULT: 17.8

QUERY: Which microsomal CLint is listed for CCOc1ccc(-n2c([C@@H](C)N(CC3CCN(C)CC3)C(=O)Cc3ccc(F)c(C(F)(F)F)c3)nc3ncccc3c2=O)cc1 ?
RESULT: 21.4

QUERY: Which microsomal CLint is listed for CCN(C(=O)Cc1ccc(S(C)(=O)=O)cc1)C1CCN(CCC(c2ccccc2)c2ccccc2)CC1 ?
RESULT: 16

QUERY: Which microsomal CLint is listed for O=C(NO)c1ccc(NS(=O)(=O)c2ccccc2)cc1 ?
RESULT: 12

QUERY: Which microsomal CLint is listed for C[C@]1(O)C[C@@H](c2nc(-c3ccc4ccc(-c5ccccc5)nc4c3)c3c(N)nccn32)C1 ?
RESULT: 17.4

QUERY: Which microsomal CLint is listed for CCOc1ccc(CCNCCCSCCNC[C@H](O)c2ccc(O)c3[nH]c(=O)sc23)cc1 ?
RESULT: 75

Recorded values, source ChEMBL document CHEMBL3301361.
